# Species: Rattus norvegicus
# MEASUREMENT_PROTOCOL: DrugMatrix - Regimen: Daily Repeat
# Assay type: toxicity, organism-based, Sprague-Dawley
# Set-up: regimen Daily Repeat, gender Male, age 6-8 weeks
# SETTINGS: in vivo, iv, 0 mg/kg, 72 h, tissue Blood, dose level Control, time 3 day, vehicle 100 % SALINE
Criterion: ABSOLUTE EOSINOPHIL meeting or surpassing 20 CELLS/uL. Met: rule met. Not met: rule not met.

INSERT INTO results (compound, class_label) VALUES
  ('CCc1c2c(nc3ccc(OC(=O)N4CCC(N5CCCCC5)CC4)cc13)-c1cc3c(c(=O)n1C2)COC(=O)[C@]3(O)CC', 'rule met'),
  ('COc1cccc2c1C(=O)c1c(O)c3c(c(O)c1C2=O)C[C@@](O)(C(=O)CO)C[C@@H]3O[C@H]1C[C@H](N)[C@H](O)[C@H](C)O1', 'rule not met'),
  ('CC[C@]1(O)C[C@@H]2CN(CCc3c([nH]c4ccccc34)[C@@](C(=O)OC)(c3cc4c(cc3OC)N(C)[C@H]3[C@@](O)(C(=O)OC)[C@H](OC(C)=O)[C@]5(CC)C=CCN6CC[C@]43[C@@H]65)C2)C1', 'rule met'),
  ('CCC1=C[C@@H]2CN(C1)Cc1c([nH]c3ccccc13)[C@@](C(=O)OC)(c1cc3c(cc1OC)N(C)[C@H]1[C@@](O)(C(=O)OC)[C@H](OC(C)=O)[C@]4(CC)C=CCN5CC[C@]31[C@@H]54)C2', 'rule not met');

Qu. // inclusive: ABSOLUTE EOSINOPHIL at least 20 CELLS/uL? input: COc1cccc2c1C(=O)c1c(O)c3c(c(O)c1C2=O)C[C@@](O)(C(=O)CO)C[C@@H]3O[C@H]1C[C@H](N)[C@@H](O)[C@H](C)O1 [EPIRUBICIN]
Ans. rule met

Qu. Try this compound next: CC(=O)N[C@@H]1[C@H](Oc2c3cc4cc2Oc2ccc(cc2Cl)[C@@H](O[C@@H]2O[C@@H](CO)[C@@H](O)[C@H](O)[C@@H]2NC(C)=O)[C@@H]2NC(=O)[C@H](NC(=O)[C@@H]4NC(=O)[C@H]4NC(=O)[C@@H](Cc5ccc(c(Cl)c5)O3)NC(=O)[C@H](N)c3ccc(O)c(c3)Oc3cc(O)cc4c3)c3ccc(O)c(c3)-c3c(O[C@H]4O[C@H](CO)[C@@H](O)[C@@H](O)[C@@H]4O)cc(O)cc3[C@@H](C(=O)O)NC2=O)O[C@@H](CO)[C@@H](O)[C@@H]1O
Ans. rule met

* * *

# Species: Rattus norvegicus
# MEASUREMENT_PROTOCOL: DrugMatrix - Regimen: Daily Repeat
# Assay type: toxicity, organism-based, Sprague-Dawley
# Set-up: regimen Daily Repeat, gender Male, age 6-8 weeks
# SETTINGS: in vivo, po, 1500 mg/kg, 72 h, tissue Blood, route oral GAVAGE, dose level High, time 3 day, vehicle .5 % CMC
Form field: NUCLEATED RED BLOOD CELLS (one value per entry).

INSERT INTO assay_data (compound, measurement_kind, observed_measurement) VALUES
  ('Cc1ccc(S(=O)(=O)NC(=O)NN2CC3CCCC3C2)cc1 (configuration not stated) [GLICLAZIDE]', 'NUCLEATED RED BLOOD CELLS', '0 /100WBC');

Let's switch to this compound now.
Qu. // lookup NUCLEATED RED BLOOD CELLS for O=C(N[C@H](CO)[C@H](O)c1ccc([N+](=O)[O-])cc1)C(Cl)Cl
Ans. 0 /100WBC

// provenance: ChEMBL document CHEMBL3885881
